PROCEDURE_DETAILS: soluble on expression in E. coli; label from the status in PepcDB or PDB records
MEASURED_QUANTITY: soluble on expression in E. coli

{"RESIDUES": "MGSDKIHHHHHHMIQTYILKIQSLKWAQREMLKTTLITDTLGHVTSTEPTTTAHVPLPDGSSTPVQIWASDNKDSQLVMLWPGFGMGGYYYRPLAAALNKAGFHVAIGELRGQGQSSAKASRKSQWGYHDLASVDFPLQIAAAKKALDLEEGHPMRFLSHSMGGQISCLFAARPEAEKYNLRAIFGVGAGSPFRPTFSPKMGKRLGLGAVLLGGIGGHIVGFWPGKVLGKDLVGYGRQSGTHMREWRRFHKHNSLDDLTAQDINYVEVMKKVSIPITFSRCPDDEDCPQASIDGLASFVPAAQIKMIEIPEALGHNRWAREPESTVKLFLEQAL", "RECORDED_RESULT": "not soluble"}
{"RESIDUES": "GSMHEYSVVSSLIALCEEHAKKNQAHKIERVVVGIGERSAMDKSLFVSAFETFREESLVCKDAILDIVDEKVELECKDCSHVFKPNALDYGVCEKCHSKNVIITQGNEMRLLSLEMLAE", "RECORDED_RESULT": "soluble"}
{"RESIDUES": "MGSDKIHHHHHHMPSETRLPNFIRTLIFALSFIFLNACSEQTAQTVTLQGETMGTTYTVKYLSNNRDKLPSPAEIQKRIDDALKEVNRQMSTYQPDSEISRFNQHTAGKPLRISSDFAHVTAEAVHLNRLTHGALDVTVGPLVNLWGFGPDKSVTREPSPEQIKQAASYTGIDKIILKQGKDYASLSKTHPKAYLDLSSIAKGFGVDKVAGELEKYGIQNYLVEIGGELHGKGKNARGEPWRIGIEQPNIVQGGNTQIIVPLNNRSLATSGDYRIFHVDKSGKRLSHIINPNNKRPISHNLASISVVADSAMTADGLSTGLFVLGETEALKLAEREKLAVFLIVRDKGGYRTAMSSEFEKLLR", "RECORDED_RESULT": "not soluble"}
{"RESIDUES": "MAHHHHHHMGTLEAQTQGPGSMTAQSGLLQGKRGLILGVANNRSIAWGIAKAAREAGAELAFTYQGDALKKRVEPLAEELGAFVAGHCDVADAASIDAVFETLEKKWGKLDFLVHAIGFSDKDELTGRYIDTSEANFTNTMLISVYSLTAVSRRAEKLMADGGSILTLTYYGAEKVMPNYNVMGVAKAALEASVKYLAVDLGPQNIRVNAISAGPIKTLAASGIGDFRYILKWNEYNAPLRRTVTIDEVGDVGLYFLSDLSRSVTGEVHHADSGYHVIGMKAVDAPDISVVKD", "RECORDED_RESULT": "soluble"}
{"RESIDUES": "MSLTAENILNRNFEANKPNQKWFTDISYLNYGKGQKAYISAIIDRYDLSIIVYKVSKRNDLKLVMDILKLALQNNDASNTILHSDRGFQYTSKHYKNYLDTHNVKISMSKAGSCLDNQPIEAFWGTLKSEYYYRNQFSTYEDLETGISEYINYYMNKRYVPKFDGLTPNEYRNVSEGHHHHHH", "RECORDED_RESULT": "not soluble"}

Record soluble on expression in E. coli per entry; entries follow.
1. MGSDKIHHHHHHMYKEYSPCSVLAPFIYHFWEYKGETRNGLKFNIPPHGRSDFVFIVGNAADCIRNSLIMKPYHSYFFGPMNTFTELVAHTNFIYIIGVRFRPCGLFRFIDIPLNELTNQGIDSHEFPVLFSQSFIYQLCESNQNPIDAIEHELVRQVYKNNTDTEKQISYAVSLISRQKGIVSIKELATEACLGLRQFERKFKFYTGYSPKEYSRIVKFWNAIHLLKSNTSFDNFLSVAIQAGYYDTPHLYREVKRLSGNTPNAFLSLSTNEKVEVLHIEL
2. MGSDKIHHHHHHQEKVSSMSEKSAPGSIQQPTRAQQLMGDIDPKLAELTDKVLFGDVWERKQLSKRDRSLVTVAALISLNRPDQLRSHMALALQNGVTREELVETITQLAFYTGWPNAVSAVPVARDVFRAADAAASHPDQGAQAQDDRTITVIHAGSQPSTHGSADHFTGSVQVDSRFQAQAPARSGGGIVTFEPGARTAWHTHPLGQTLIVTAGIGLVQQWGGPVQVIKPGDIVWIPPGVKHWHGATRTSGMTHIAIAEALDGKSVDWMELVMDAQYLGGQPR
3. MAHHHHHHMENIENIENIEKIHLTDDGGVIKTILRKGNEGEENVPKKGNEVTVHYIGKLESDGSIFDSSRQRDVPFKFHLGNGEVIKGWDICVASMKKNEKCLVRLDSKYGYGKEGCGETIPGNSVLIFEIELLSFKEAKKNIYDYTDEEKIQAAFELKDEGNEFFKKNEINEAIAKYKEALDYFMHTDEWEDELLEKKKNIQIICNLNLSTCYNKNKDYPNAIEHASKVLKLDKNNVKGLYKLGVANMNFGFLEEAKINLYKAASLNPKNLDIRNSYELCIAKLKEARKKDQITFG
4. MTEKVSRFPGVFPLIVIGVPGSVDKTHKKLAFAPNLNRWRDIDVEKYFKVFEVYLENDANLAALAEMMRNKHFGDRKNIVYILVREGIGGGIIIEGKLYKGSFNAAGEIGHMKMYDRGPCFCGRVGCWEANTSISHCVRQYEKKKPLPGNTMYEKFETLCRIYEEDPLAKEVLDEFTGILIDGIVNLVNILSPEIVIVGGEGVFLPESVFEVIVSETRRQVHPMDKEVSVEKGSLSNKEVVLEGTSILSSMMISERLV

Completion:
not soluble
not soluble
soluble
soluble

Record soluble on expression in E. coli per entry; entries follow.
1. MTILFISDLHLSPLRPDITDCFIDFMQNEAIHAEKLYVLGDLFEFWIGDDDNSPFNVSIKNEFKALTEKGVKCYFIQGNRDFLLNKRFCKETGVELLDDHTVIELDGEKVLIMHGDTLCIDDIKYQEFRAKVHKPWLQWVFNRIPLFIRQRIVKNVQDKIKEKKQTKTLCIMDVTQSEVERVMQEEGVQRLIHGHTHRPDTHTFMSNNKEMTRIVLGDWYSQGSILEYSDKIYSLHKKEFK
2. MAYATVEDMVARFGELEVLQLTDRNNEGLIDREVAQTALVDATAEIDAYLGRFRRPFEDLPPILVRLCCDIARYRLTAAQGVLITDEIRNRYKIDVLDLLRAMAKGEVQLGVDDSGEEVAAGEDGIVFVNGKNKVFGRDH
3. GPGSMQQSLIPGHNNNRHLTVEEIENNIGGLAITDNKLQELFDSLDVERTGYLPIGEVKKFYKGLEHYGLEPTDAEIESEMKKFAKSDENFMSYDEFCCLMLSFAQR

Completion:
not soluble
not soluble
not soluble
